AC50, human CYP1A2 (Homo sapiens, UniProt P05177), per-entry values.
I only need the number, in µM, no unit after it.

Worked set:
Nc1ccccc1S(=O)(=O)c1ccccc1    50.5
CCCOc1ccc2c(c1)CC[C@@H]1[C@@H]2CC[C@]2(C)[C@@H](OC)CC[C@@H]12    33.7
O=C(O)CC(C(=O)O)S(=O)(=O)O (centres unmarked)    33

What value of measured AC50 is listed for "Nc1ccc(Cl)cc1C(=O)c1ccccc1F" ?
14.4

What value of measured AC50 is listed for "CO/C=C(/C(=O)OC)c1ccccc1COc1cccc(C(F)(F)F)n1" ?
32.1

###

IC50, human CYP2C9 (Homo sapiens), per-entry values.
I only need the number, in µM, no unit after it.

Worked set:
Cc1oc(=O)oc1COC(=O)[C@@H]1N2C(=O)[C@@H](NC(=O)[C@H](N)c3ccccc3)[C@H]2SC1(C)C.Cl [Lenampicillin hydrochloride]    41.3
COC(=O)C1=C(C)NC(C)=C(C(=O)O[C@@H]2CCCN(Cc3ccccc3)C2)[C@@H]1c1cccc([N+](=O)[O-])c1.Cl (racemic) [rac Benidipine hydrochloride]    0.75

Pending compound:
What value of measured IC50 is listed for C[C@@H]1C[C@H]2[C@@H]3CCC4=CC(=O)C=C[C@]4(C)[C@@]3(F)[C@@H](O)C[C@]2(C)[C@@]1(O)C(=O)COC(=O)c1ccncc1 [Dexamethasone isonicotinate] ?
7.32

###

- EXPERIMENTAL SYSTEM: human CYP1A2 (Homo sapiens, UniProt P05177)
- Sequence (P05177 whole entry): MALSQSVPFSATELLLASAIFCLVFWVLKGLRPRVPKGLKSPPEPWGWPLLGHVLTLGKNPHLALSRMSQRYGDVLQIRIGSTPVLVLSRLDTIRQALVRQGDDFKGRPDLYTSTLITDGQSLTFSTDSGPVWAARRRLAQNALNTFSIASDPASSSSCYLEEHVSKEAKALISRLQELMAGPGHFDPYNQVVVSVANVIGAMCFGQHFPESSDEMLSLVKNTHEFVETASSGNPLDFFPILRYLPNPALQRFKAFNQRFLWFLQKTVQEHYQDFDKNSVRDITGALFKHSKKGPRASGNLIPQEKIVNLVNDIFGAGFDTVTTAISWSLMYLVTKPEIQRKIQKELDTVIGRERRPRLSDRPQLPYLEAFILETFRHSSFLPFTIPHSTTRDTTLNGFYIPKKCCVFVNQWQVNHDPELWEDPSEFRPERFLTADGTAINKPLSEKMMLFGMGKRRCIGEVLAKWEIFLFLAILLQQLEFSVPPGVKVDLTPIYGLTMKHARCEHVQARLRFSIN
ASSAY READOUT: CYP1A2 AC50 (half-maximal activity concentration)

Worked set:
CCCCCCC(O)CCCCCCCCCCC(=O)OC (centres unmarked) [Methyl 12-hydroxyoctadecanoate]    Inconclusive inhibitor
CC[N+](C)(CC)CCOC(=O)C1c2ccccc2Oc2ccccc21 [Methantheline bromide]    Inconclusive inhibitor
OCC(CBr)(CBr)CBr    Inactive
C[C@@H]1CC[C@@]2(OC1)O[C@H]1C[C@H]3[C@@H]4CC[C@H]5C[C@@H](O)CC[C@]5(C)[C@H]4CC(=O)[C@]3(C)[C@H]1[C@@H]2C    Inactive
CC(=O)OCC(=O)[C@@]12N=C(C)O[C@@H]1C[C@H]1[C@@H]3CCC4=CC(=O)C=C[C@]4(C)[C@H]3[C@@H](O)C[C@@]12C    Inactive

Param readout= CYP1A2 AC50 (half-maximal activity concentration); system= human CYP1A2 (Homo sapiens, UniProt P05177); entry= "N#Cc1c(Cl)cccc1Cl" ; returns value.
Inconclusive inhibitor

Param readout= CYP1A2 AC50 (half-maximal activity concentration); system= human CYP1A2 (Homo sapiens, UniProt P05177); entry= CC(=O)O[C@]1(C(C)=O)CC[C@H]2[C@@H]3C=C(Cl)C4=CC(=O)[C@@H]5C[C@@H]5[C@]4(C)[C@H]3CC[C@@]21C [Cyproterone acetate] ; returns value.
Inactive

###

CYP2D6 AC50 (half-maximal activity concentration), human CYP2D6 (Homo sapiens), per-entry values.

Worked set:
Nc1ccc(Cl)cc1C(=O)c1ccccc1F [2-Amino-5-chloro-2'-fluorobenzophenone]    Inactive
Oc1c(Cl)c(Cl)c(Cl)c(Cl)c1Cl [Pentachlorophenol]    Inactive
CCSC(=O)N(CC)C1CCCCC1 [Cycloate]    Inactive
O=C(O)c1cc(Cl)cc(Cl)c1O [3,5-Dichlorosalicylic acid]    Inactive

What value of measured CYP2D6 AC50 (half-maximal activity concentration) is listed for CCCCc1c(C)nc(NCC)[nH]c1=O [Ethirimol] ?
Inactive

What value of measured CYP2D6 AC50 (half-maximal activity concentration) is listed for CCC(C)c1ccc(O)cc1 (stereo not drawn) [4-(Butan-2-yl)phenol] ?
Inactive

What value of measured CYP2D6 AC50 (half-maximal activity concentration) is listed for CC(C)N1C(=O)c2ccccc2C1=O [N-Isopropylphthalimide] ?
Inactive

What value of measured CYP2D6 AC50 (half-maximal activity concentration) is listed for C[C@]12CC[C@H]3[C@@H](CCC4=CC(=O)CC[C@@H]43)[C@@H]1CC[C@@H]2OC(=O)CCC1CCCCC1 [Nandrolone cyclohexylpropionate] ?
Inactive

What value of measured CYP2D6 AC50 (half-maximal activity concentration) is listed for Cc1cc(C)nc(O)n1.O=C(Nc1ccc([N+](=O)[O-])cc1)Nc1ccc([N+](=O)[O-])cc1 [Nicarbazin] ?
Inactive

What value of measured CYP2D6 AC50 (half-maximal activity concentration) is listed for Oc1nc(Cl)c(Cl)cc1Cl [3,5,6-Trichloro-2-pyridinol] ?
Inconclusive inhibitor

What value of measured CYP2D6 AC50 (half-maximal activity concentration) is listed for CC(C)c1ccc2ncccc2c1 [6-(1-Methylethyl)quinoline] ?
Inactive

What value of measured CYP2D6 AC50 (half-maximal activity concentration) is listed for NS(=O)(=O)c1ccccc1OC(F)(F)F [2-(Trifluoromethoxy)benzenesulfonamide] ?
Inactive

###

CYP2C9 AC50 (half-maximal activity concentration), UniProt P11712, per-entry values.

Cc1ccc2ccccc2n1    Inactive
CCNc1nc(NC(C)(C)C)nc(SC)n1    Inconclusive activator
O=[N+]([O-])c1c(Cl)cc(Cl)cc1Cl    Inactive
O=C(O)c1cccc(Oc2ccccc2)c1    Inactive
CC(C)c1ccccc1O    Inactive

Param readout= CYP2C9 AC50 (half-maximal activity concentration); system= UniProt P11712; entry= Cc1ccnc2ccccc12 [Lepidine] ; returns value.
Inconclusive activator

Param readout= CYP2C9 AC50 (half-maximal activity concentration); system= UniProt P11712; entry= "CCNc1nc(NCC)nc(SC)n1" ; returns value.
Inconclusive activator

###

- EXPERIMENTAL SYSTEM: human CYP2C9 (Homo sapiens)
- Sequence (P11712 whole entry): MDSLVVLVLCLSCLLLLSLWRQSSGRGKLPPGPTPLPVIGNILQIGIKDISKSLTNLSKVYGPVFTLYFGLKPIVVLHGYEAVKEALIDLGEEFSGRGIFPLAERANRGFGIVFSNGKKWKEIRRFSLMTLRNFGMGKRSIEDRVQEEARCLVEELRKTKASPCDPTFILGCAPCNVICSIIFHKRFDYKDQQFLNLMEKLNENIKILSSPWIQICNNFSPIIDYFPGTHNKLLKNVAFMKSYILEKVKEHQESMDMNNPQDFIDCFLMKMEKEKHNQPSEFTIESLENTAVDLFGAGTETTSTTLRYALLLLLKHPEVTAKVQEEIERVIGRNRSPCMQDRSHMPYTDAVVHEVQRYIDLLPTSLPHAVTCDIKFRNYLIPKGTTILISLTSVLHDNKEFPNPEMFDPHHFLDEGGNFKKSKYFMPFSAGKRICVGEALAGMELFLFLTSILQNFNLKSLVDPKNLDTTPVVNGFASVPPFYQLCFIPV
ASSAY READOUT: CYP2C9 Efficacy (in parenthesis)

OCC(c1ccc(Cl)cc1)c1ccc(Cl)cc1    11.71 ± 0.79 (-108 ± 10) %

Param readout= CYP2C9 Efficacy (in parenthesis); system= human CYP2C9 (Homo sapiens); entry= "CCOP(=O)([O-])OCC.CCn1cc[n+](C)c1" ; returns value.
58.2 ± 3.94 (-117 ± 2) %

Param readout= CYP2C9 Efficacy (in parenthesis); system= human CYP2C9 (Homo sapiens); entry= "CC(=O)c1ccc2ccc3ccccc3c2c1" ; returns value.
11.64 ± 0.79 (-93 ± 2) %

Param readout= CYP2C9 Efficacy (in parenthesis); system= human CYP2C9 (Homo sapiens); entry= O=C1CCCc2c1cc1ccc3cccc4ccc2c1c34 [9,10-Dihydrobenzo[a]pyren-7(8H)-one] ; returns value.
5.32 ± 0.68 (-71 ± 3) %

Param readout= CYP2C9 Efficacy (in parenthesis); system= human CYP2C9 (Homo sapiens); entry= "OC(c1ccc(Cl)cc1)(c1ccc(Cl)cc1)c1cccnc1" ; returns value.
0.4 ± 0.05 (-109 ± 9) %

###

- EXPERIMENTAL SYSTEM: UniProt:P11712
- ASSAY NOTES: biochemical
- MEASUREMENT CONDITIONS: CYP2C9 IC50 (half-maximal inhibitory concentration)
Structures can show the parent of a compound that is named as a salt.
Measured log10 of IC50, listed per entry for reference.
Log scale reminder: IC50 in µM, then log10 taken.

Cc1ccc2c(c1N)C(=O)c1ccccc1C2=O [1-Amino-2-methylanthraquinone]    0.53
O=C(Nc1ccc(Cl)c(Cl)c1)C1CC1 [Cypromid]    1.40
CC(C)C[C@H](NC(=O)[C@H](CCc1ccccc1)NC(=O)CN1CCOCC1)C(=O)N[C@@H](Cc1ccccc1)C(=O)N[C@@H](CC(C)C)C(=O)[C@@]1(C)CO1 [Carfilzomib]    1.47
CCN(CC)C(=O)SCc1ccc(Cl)cc1 [Thiobencarb]    1.40
CCCC(=O)O[C@]1(C(=O)CCl)[C@@H](C)C[C@H]2[C@@H]3CCC4=CC(=O)C=C[C@]4(C)[C@@]3(F)C(=O)C[C@@]21C [Clobetasone butyrate]    1.25

What value of measured log10 of IC50 is listed for CC(COc1ccccc1)N(CCCl)Cc1ccccc1 (stereo not shown) [Phenoxybenzamine hydrochloride] ?
1.36

###

- EXPERIMENTAL SYSTEM: human CYP2D6 (Homo sapiens)
- Sequence (P10635 whole entry): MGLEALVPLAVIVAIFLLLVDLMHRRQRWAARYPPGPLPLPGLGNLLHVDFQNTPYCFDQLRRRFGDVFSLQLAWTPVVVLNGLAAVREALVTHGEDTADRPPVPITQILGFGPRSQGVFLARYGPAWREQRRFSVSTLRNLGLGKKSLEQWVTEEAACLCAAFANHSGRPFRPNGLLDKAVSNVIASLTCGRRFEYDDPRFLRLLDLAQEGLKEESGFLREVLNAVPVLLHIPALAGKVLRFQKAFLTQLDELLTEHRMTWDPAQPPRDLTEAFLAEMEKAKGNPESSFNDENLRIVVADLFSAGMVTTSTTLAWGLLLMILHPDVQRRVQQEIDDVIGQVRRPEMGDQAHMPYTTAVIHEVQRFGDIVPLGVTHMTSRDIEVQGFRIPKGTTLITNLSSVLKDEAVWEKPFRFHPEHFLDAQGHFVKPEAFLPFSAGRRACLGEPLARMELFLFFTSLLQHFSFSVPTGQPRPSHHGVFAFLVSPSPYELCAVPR
- ASSAY NOTES: biochemical
pIC50: −log10 of the molar value. Where a name gives a salt, the structure may show the parent alone.
Give 1.0 when the value for pIC50 is at least 5. Give 0.0 when it is less.

O=C1N(c2ccccc2)c2ccccc2C1(Cc1ccncc1)Cc1ccncc1    0.0
O=C1CC2(CCCC2)CC(=O)N1CCNCC1COc2ccccc2O1 (stereo not drawn) [Binospirone mesylate]    1.0
CSC(=O)c1cccc2nnsc12    0.0
CN(C/C=C/C#CC(C)(C)C)Cc1cccc2ccccc12 [terbinafine, reference compound]    1.0
COC(=O)c1c(Cl)c(Cl)c(C(=O)OC)c(Cl)c1Cl    0.0

Check the entry CC(C(O)c1ccccc1)N(C)C/C=C/c1ccccc1 (stereo not drawn) : does pIC50 equal or exceed 5?
1.0

Check the entry N#C/C(=C1/SCC(c2ccccc2Cl)S1)n1ccnc1 (stereo not drawn) : does pIC50 equal or exceed 5?
1.0
